# System: HCT116-MTAP-KO cells (HCT116 MTAP null)
# PROTOCOL_SUMMARY: Proliferation inhibition of HCT116 MTAP-KO cells in vitro (CellTiter Glo)
# Assay type: cell-based
# CONDITION_LABEL: HCT116-MTAP null, 144 h, 6 days, 9 concentrations starting from 3 μM, read-out: Cell proliferation inhibition rate HCT116 MTAP null IC50 (nm)
The entries below come with measured IC50 values attached.

Returns the measured IC50 for the input compound. Input: CCN(Cc1ccc(OC2CC2)cn1)C(=O)c1cc2c(cc1F)nc(N)c1cnc(C)n12
< 0.1 µM

Returns the measured IC50 for the input compound. Input: Cc1ncc2c(N)nc3cc(F)c(C(=O)N(Cc4ccc(OC5COC5)cn4)c4ccnn4C)cc3n12
< 0.1 µM

Further cases:
Returns the measured IC50 for the input compound. Input: Cc1ncc2c(N)nc3cc(F)c(C(=O)N(Cc4ncc(C(F)(F)F)cc4F)c4cnn(C)c4)cc3n12
< 0.1 µM

Returns the measured IC50 for the input compound. Input: CCN(Cc1ccc(C(F)(F)F)nn1)C(=O)c1cc2c(cc1F)nc(N)c1cnc(C)n12
0.1 to 1 µM

* * *

The entries below come with measured IC50 values attached.
# Test system: HCT116-MTAP-KO cells (HCT116 MTAP null)
# PROTOCOL_SUMMARY: Proliferation inhibition of HCT116 MTAP-KO cells in vitro (CellTiter Glo)
# Assay type: cell-based
# CONDITION_LABEL: HCT116-MTAP null, 144 h, 6 days, 9 concentrations starting from 3 μM, read-out: Cell proliferation inhibition rate HCT116 MTAP null IC50 (nm)

Some solved entries appear below for comparison.
Fill in the recorded IC50 for this compound, with HCT116-MTAP-KO cells (HCT116 MTAP null) as test system: Cc1nn(C)cc1N(Cc1ccc(OC(F)(F)F)cn1)C(=O)c1cc2c(cc1F)nc(N)c1c(C)ncn12 [Example 170]
< 100 nM

Fill in the recorded IC50 for this compound, with HCT116-MTAP-KO cells (HCT116 MTAP null) as test system: Cc1ncc2c(N)nc3cc(F)c(C(=O)N(Cc4ccc(C(F)(F)F)cn4)C4COC4)cc3n12 [Example 158]
100 to 1000 nM

Fill in the recorded IC50 for this compound, with HCT116-MTAP-KO cells (HCT116 MTAP null) as test system: Cc1ncc2c(N)nc3cc(F)c(C(=O)N4C(C)COC[C@@H]4c4ncc(C(F)(F)F)cc4F)cc3n12 (stereo partly drawn) [Example 34]
< 100 nM

Fill in the recorded IC50 for this compound, with HCT116-MTAP-KO cells (HCT116 MTAP null) as test system: COc1cc(N(Cc2ccc(C(F)(F)F)cn2)C(=O)c2cc3c(cc2F)nc(N)c2cnc(C)n23)nn1C [Example 122]
100 to 1000 nM

Fill in the recorded IC50 for this compound, with HCT116-MTAP-KO cells (HCT116 MTAP null) as test system: Cc1ncc2c(N)nc3cc(F)c(C(=O)N(Cc4ccc(C(F)(F)F)cn4)c4cn(C)nc4CO)cc3n12 [Example 133]
100 to 1000 nM

Further cases:
Fill in the recorded IC50 for this compound, with HCT116-MTAP-KO cells (HCT116 MTAP null) as test system: Cc1c(N(Cc2ccc(C(F)(F)F)cn2)C(=O)c2cc3c(cc2F)nc(N)c2cnc(C)n23)cnn1CC(F)F [Example 180]
< 100 nM

Fill in the recorded IC50 for this compound, with HCT116-MTAP-KO cells (HCT116 MTAP null) as test system: Cc1ncn2c1c(N)nc1ccc(C(=O)N(Cc3nc(C4=CCOCC4)cs3)CC(C)C)cc12 [Example 303]
< 100 nM

* * *

The entries below come with measured IC50 values attached.
# Test system: HCT116-MTAP-KO cells (HCT116 MTAP null)
# PROTOCOL_SUMMARY: Proliferation inhibition of HCT116 MTAP-KO cells in vitro (CellTiter Glo)
# Type: cell-based
# CONDITION_LABEL: HCT116-MTAP null, 144 h, 6 days, 9 concentrations starting from 3 μM, read-out: Cell proliferation inhibition rate HCT116 MTAP null IC50 (nm)

Some solved entries appear below for comparison.
Returns the measured IC50 for the input molecule. Input: Cc1ncn2c1c(N)nc1ccc(C(=O)N(CC(C)C)C(C)c3nc(-c4ccccn4)cs3)cc12 (stereo not drawn) [Example 299]
< 100 nM

Returns the measured IC50 for the input molecule. Input: Cc1ncc2c(N)nc3cc(F)c(C(=O)N(Cc4ccc(F)cn4)c4ccnn4C)cc3n12 [Example 207]
< 100 nM

Further cases:
Returns the measured IC50 for the input molecule. Input: CCN(Cc1ccc(C(F)(F)F)cn1)C(=O)c1cc2c(cn1)nc(N)c1cnc(C)n12 [Example 9]
< 100 nM

Returns the measured IC50 for the input molecule. Input: CCN(Cc1ccc(C(F)(F)F)cn1)C(=O)c1ccc2nc(N)c3c(C)nc(C)n3c2c1 [Example 15]
100 to 1000 nM

Returns the measured IC50 for the input molecule. Input: COCCn1cc(CN(C(=O)c2cc3c(cc2F)nc(N)c2cnc(C)n23)c2ccnn2C)cn1 [Example 221]
100 to 1000 nM

Returns the measured IC50 for the input molecule. Input: Cc1ncn2c1c(N)nc1ccc(C(=O)N(Cc3nc(N4CCOCC4)cs3)CC(C)C)cc12 [Example 301]
100 to 1000 nM

Returns the measured IC50 for the input molecule. Input: CCn1cc(N(Cc2ccc(C(F)(F)F)nn2)C(=O)c2cc3c(cc2F)nc(N)c2cnc(C)n23)c(C)n1 [Example 202]
100 to 1000 nM

* * *

# System: HCT116-MTAP-KO cells (HCT116 MTAP null)
# PROTOCOL_SUMMARY: Proliferation inhibition of HCT116 MTAP-KO cells in vitro (CellTiter Glo)
# Format: cell-based
# CONDITION_LABEL: HCT116-MTAP null, 144 h, 6 days, 9 concentrations starting from 3 μM, read-out: Cell proliferation inhibition rate HCT116 MTAP null IC50 (nm)
pIC50: −log10 of the molar value.
QUANTITY: pIC50

Some solved entries appear below for comparison.
Returns the measured pIC50 for the input compound. Input: Cc1ncc2c(N)nc3cc(F)c(C(=O)N(Cc4ccc(OCC(F)(F)F)cn4)c4cnn(C)c4)cc3n12 [Example 116]
6.00 to 7.00

Returns the measured pIC50 for the input compound. Input: COc1ccc(C2COCC(C)N2C(=O)c2cc3c(cc2F)nc(N)c2cnc(C)n23)nn1 (centres unmarked) [Example 271]
> 7.00

Returns the measured pIC50 for the input compound. Input: Cc1ccc2c(N)nc3ccc(C(=O)N(Cc4ccc(C(F)(F)F)cn4)C(C)c4ncccn4)cc3n12 (centres unmarked) [Example 12]
6.00 to 7.00

Returns the measured pIC50 for the input compound. Input: COc1ncccc1N(Cc1ccc(C(F)(F)F)cn1)C(=O)c1cc2c(cc1F)nc(N)c1cnc(C)n12 [Example 145]
> 7.00

Further cases:
Returns the measured pIC50 for the input compound. Input: Cc1ncc2c(N)nc3cc(F)c(C(=O)N4C(C)COCC4c4ccc(C(F)(F)F)cn4)cc3n12 (centres unmarked) [Example 273]
> 7.00

Returns the measured pIC50 for the input compound. Input: Cc1nn(C)cc1N(Cc1ccc(OC2CC2)cn1)C(=O)c1cc2c(cc1F)nc(N)c1cnc(C)n12 [Example 144]
> 7.00

Returns the measured pIC50 for the input compound. Input: Cc1nn(C)cc1N(Cc1ccc(OC2CC2)cn1)C(=O)c1cc2c(cn1)nc(N)c1cnc(C)n12 [Example 189]
> 7.00

Returns the measured pIC50 for the input compound. Input: Cc1ncc2c(N)nc3cc(F)c(C(=O)N(Cc4ccc(C(F)(F)F)cn4)c4cn[nH]c4)cc3n12 [Example 88]
6.00 to 7.00

* * *

# System: HCT116-MTAP-KO cells (HCT116 MTAP null)
# PROTOCOL_SUMMARY: Proliferation inhibition of HCT116 MTAP-KO cells in vitro (CellTiter Glo)
# Type: cell-based
# CONDITION_LABEL: HCT116-MTAP null, 144 h, 6 days, 9 concentrations starting from 3 μM, read-out: Cell proliferation inhibition rate HCT116 MTAP null IC50 (nm)
QUANTITY: IC50

Some solved entries appear below for comparison.
Fill in the recorded IC50 for this molecule, with HCT116-MTAP-KO cells (HCT116 MTAP null) as test system: CCn1nccc1N(Cc1ccc(C(F)(F)F)cn1)C(=O)c1cc2c(cc1F)nc(N)c1cnc(C)n12
< 100 nM

Fill in the recorded IC50 for this molecule, with HCT116-MTAP-KO cells (HCT116 MTAP null) as test system: Cc1cn2c(n1)c(N)nc1ccc(C(=O)N3[C@H](C)COC[C@@H]3c3cn4ccccc4n3)cc12
100 to 1000 nM

Fill in the recorded IC50 for this molecule, with HCT116-MTAP-KO cells (HCT116 MTAP null) as test system: Cc1ncn2c1c(N)nc1cc(F)c(C(=O)N3C(c4ccc(C#N)cn4)COC[C@H]3C)cc12 (stereo partly drawn)
< 100 nM

Fill in the recorded IC50 for this molecule, with HCT116-MTAP-KO cells (HCT116 MTAP null) as test system: Cc1ncc2c(N)nc3cc(F)c(C(=O)N(Cc4cn5ccccc5n4)C4CCN(C)C4)cc3n12 (stereo not drawn)
1000 to 10000 nM

Fill in the recorded IC50 for this molecule, with HCT116-MTAP-KO cells (HCT116 MTAP null) as test system: Cc1ncn2c1c(N)nc1ccc(C(=O)N(Cc3nc(C4CCOCC4)cs3)CC(C)C)cc12
< 100 nM

--- query ---
Fill in the recorded IC50 for this molecule, with HCT116-MTAP-KO cells (HCT116 MTAP null) as test system: Cc1ncc2c(N)nc3cc(F)c(C(=O)N(Cc4cnn(C5COC5)c4)c4ccnn4C)cc3n12
100 to 1000 nM

Hello, the source for this data is patent US20250376473A1, in case you need it.
